src = PubChem BioAssay AID248

Property: T/C; scope: individual compounds
# Tested on: L1210 leukemia ip in BDF1 mice, survival T/C
# Experimental Protocol: NCI In Vivo Anticancer Drug Screen. Data for tumor model L1210 Leukemia (intraperitoneal) in B6D2F1 (BDF1) mice
# Condition Description: endpoint: mean survival time; dose: 100.0 mg/kg/injection; schedule: Q01DX001 (ip); vehicle: Klucel (hydroxypropylcellulose) (HPC); higher = longer survival
Inconclusive results and toxic doses are left out.
Observable: T/C

> print(dat)
                                    compound            result
 1  Cc1ccc(-n2c(=O)c(N=Nc3ccc(Cl)cc3)c(O)n(-c3ccccc3Cl)c2=S)cc1   92 % of control
 2                COC(=O)/C=C1/OC(=O)CC1(C)C  106 % of control
 3         O=C(CC(=O)c1ccccc1)CC(=O)c1ccccc1   97 % of control
 4                CC(=O)Nc1cccc(Cc2ccccc2)c1   95 % of control
 5         Cc1ccc(S(=O)(=O)NCC(=O)NCCC#N)cc1  103 % of control
 6  Cc1ccc(S(=O)(=O)NNC(=O)C2(C)CC2(C)C(=O)O)cc1 (stereo unspecified)  100 % of control
 7  Nc1nc2c(ncn2-c2ccc(OCCCOc3ccc(S(=O)(=O)F)cc3)cc2)c(=O)[nH]1   94 % of control
 8  Cc1ncc(CN2CSC(CCO)C2C)c(N)n1 (stereo unspecified)   95 % of control
 9  CC(C(=O)O)C(NC(=O)c1ccccc1)C(=O)O (stereo unspecified)   93 % of control
10                    CC(=O)NC(=O)NC(=O)CC#N   90 % of control
11               COC(=O)c1cc(Cl)ccc1OCC(=O)O   90 % of control
12    O=C(Nc1ccc([N+](=O)[O-])cn1)Nc1ccccc1F   92 % of control
13  COc1ccc2c(c1OC)CCN1C3=C(CC(OC(=O)c4ccccc4)CC3)C(=O)CC21 (stereo unspecified)   96 % of control
14          CCOC(=O)NC(NC(=O)OCC)C(Br)(Br)Br  108 % of control
15                  CC(C)(NC(=O)NCCCl)C(=O)O  105 % of control
16               O=C(Nc1ccc(O)cc1)OCc1ccccc1  109 % of control

* * *

Property: T/C; scope: individual compounds
# System: L1210 leukemia ip in BDF1 mice, survival T/C
# Experimental Protocol: NCI In Vivo Anticancer Drug Screen. Data for tumor model L1210 Leukemia (intraperitoneal) in B6D2F1 (BDF1) mice
# Condition Description: endpoint: mean survival time; dose: 400.0 mg/kg/injection; schedule: Q01DX001 (ip); vehicle: saline; higher = longer survival
Toxic doses and inconclusive results are not listed.
Observable: T/C

> print(dat)
                                    compound            result
 1  Nc1ccc(CCNS(=O)(=O)c2ccc(S(=O)(=O)F)cc2)cc1  107 % of control
 2             CCCCC(=O)N/N=C/c1ccccc1C(=O)O   91 % of control
 3  Cc1cc(-c2ccccc2)c2c(C#N)cn(-c3cccc(Cl)c3)c2n1  102 % of control
 4              c1ccc2c3c(ccc2c1)-c1oncc1CC3   93 % of control
 5        O=C(Nc1ccc(Cl)c(Cl)c1)NC(CO)(CO)CO   94 % of control
 6  OC1C2CCN(CC2)C1CN1CCOCC1 (configuration not stated)   97 % of control
 7           O=C(O)c1cccc2c1-c1ccccc1/C2=N\O  104 % of control
 8                BrC12CCC(CC1)C1(Br)CCC2CC1   89 % of control
 9  Cc1ccc(S(=O)(=O)OCCCN(CCCOS(=O)(=O)c2ccc(C)cc2)c2ccccc2)cc1   95 % of control
10           COc1cc(Cc2cnc(N)nc2N)cc(OC)c1OC   97 % of control
11  CNc1nc(=O)n(C2CCCO2)cc1C (configuration not stated)   95 % of control
12  O=C1OCC2Cc3cc4c(cc3C(c3ccc5c(c3)OCO5)=C12)OCO4 (configuration not stated)   95 % of control
